Test system: control Gram-negative E. coli 25922 strain
protocol: Antibacterial activity, microbroth dilution MIC, E. coli 25922
Format: cell-based, Escherichia coli
run-parameters: Escherichia coli; E. coli 25922, microbroth dilution; read-out: MIC, 25922
Task for the reader: assign each of the following compounds its reported MIC.

Known value: control Gram-negative E. coli 25922 strain MIC of the compound CCc1cc(C(=O)O)c(=O)[nH]c1-c1ccc(N2C[C@H]3CCN(Cc4ccccc4)[C@H]3C2)cc1.O=C(O)C(F)(F)F equals 3.5 to 12.5 mg/L

Known value: control Gram-negative E. coli 25922 strain MIC of the compound CCc1cc(C(=O)O)c(=O)[nH]c1-c1ccc(N2CC3OCCN(Cc4ccccc4)C3C2)cc1.O=C(O)C(F)(F)F (centres unmarked) equals 12.5 to 150 mg/L

Known value: control Gram-negative E. coli 25922 strain MIC of the compound C=CCN(CC=C)c1ccc(-c2[nH]c(=O)c(C(=O)O)cc2CC)cc1 equals 12.5 to 150 mg/L

Known value: control Gram-negative E. coli 25922 strain MIC of the compound CCc1cc(C(=O)O)c(=O)[nH]c1-c1ccc(N2CCC(N(C)C)C2)cc1F (centres unmarked) equals 3.5 to 12.5 mg/L

Known value: control Gram-negative E. coli 25922 strain MIC of the compound CCc1cc(C(=O)O)c(=O)[nH]c1-c1ccc(N2CCC(c3ccncc3)C2)cc1 (centres unmarked) equals 1 to 3.5 mg/L

Known value: control Gram-negative E. coli 25922 strain MIC of the compound CCc1cc(C(=O)O)c(=O)[nH]c1-c1ccc(N2CCN(C(=O)OC(C)(C)C)CC2)cc1 equals 12.5 to 150 mg/L

Known value: control Gram-negative E. coli 25922 strain MIC of the compound CCc1cc(C(=O)O)c(=O)[nH]c1-c1ccc(N2CC[C@H](N(C)C)C2)cc1.Cl equals 1 to 3.5 mg/L

Known value: control Gram-negative E. coli 25922 strain MIC of the compound CCc1cc(C(=O)O)c(=O)[nH]c1-c1ccc(N2CCC[C@@H]2C(F)(F)F)cc1 equals 12.5 to 150 mg/L

====

Tested on: Pseudomonas aeruginosa (P. aeruginosa) 27853
protocol: Antibacterial activity, MIC, P. aeruginosa 27853
Format: cell-based
run-parameters: Pseudomonas aeruginosa, P. aeruginosa 27853; read-out: MIC 27853
observation-type: MIC

Lookup result for CCc1c(-c2ccc(N3CC=CC3)cc2)[nH]c(=O)c(C(=O)O)c1O ; measured MIC: 3.5 to 12.5 µg/mL

Lookup result for CC#Cc1c(-c2ccc(N(C)C)cc2)[nH]c(=O)c(C(=O)O)c1O ; measured MIC: 12.5 to 150 µg/mL

Lookup result for CCc1cc(C(=O)O)c(=O)[nH]c1-c1ccc(N2CCC(F)C2)cc1 (centres unmarked) ; measured MIC: 3.5 to 12.5 µg/mL

Lookup result for CCc1c(-c2ccc(N3CC(N)C4(CC4)C3)cc2)[nH]c(=O)c(C(=O)O)c1O.O=C(O)C(F)(F)F (centres unmarked) ; measured MIC: 12.5 to 150 µg/mL

Lookup result for CCc1c(-c2ccc(N3CC4CCCNC4C3)cc2)[nH]c(=O)c(C(=O)O)c1O.Cl (centres unmarked) ; measured MIC: 3.5 to 12.5 µg/mL

====

Test system: super sensitive Gram-negative Escherichia coli (E. coli) BAS849
protocol: Antibacterial activity, microbroth dilution MIC, E. coli BAS849
Assay type: cell-based
run-parameters: Escherichia coli, read-out: MIC, BAS849
Task for the reader: assign each of the following molecules its reported MIC.

Lookup result for CCc1cc(C(=O)O)c(=O)[nH]c1-c1ccc(N2C[C@H]3CC[C@@H](N(Cc4ccccc4)Cc4ccccc4)[C@H]3C2)cc1.O=C(O)C(F)(F)F [Cpd 201] ; measured MIC: 3.5 to 12.5 µg/mL

Lookup result for CCc1cc(C(=O)O)c(=O)[nH]c1-c1ccc(N2C[C@H]3CCC[C@H](N=[N+]=[N-])[C@H]3C2)cc1.O=C(O)C(F)(F)F [Cpd 244] ; measured MIC: < 1 µg/mL

Lookup result for CCc1cc(C(=O)O)c(=O)[nH]c1-c1ccc(N2CCC(C3(N)CCC3)C2)cc1.O=C(O)C(F)(F)F (centres unmarked) [Cpd 218] ; measured MIC: 1 to 3.5 µg/mL

Lookup result for CCc1cc(C(=O)O)c(=O)[nH]c1-c1ccc(N2C[C@H]3CCN(C)[C@H]3C2)cc1.O=C(O)C(F)(F)F [Cpd 187] ; measured MIC: < 1 µg/mL

Lookup result for CCc1cc(C(=O)O)c(=O)[nH]c1-c1ccc(N2CCNCC2)cc1.O=C(O)C(F)(F)F [Cpd 103] ; measured MIC: 3.5 to 12.5 µg/mL

Lookup result for CCc1cc(C(=O)O)c(=O)[nH]c1-c1ccc(N2CC3OCCN(Cc4ccccc4)C3C2)cc1.O=C(O)C(F)(F)F (centres unmarked) [Cpd 180] ; measured MIC: 1 to 3.5 µg/mL

Lookup result for CCc1c(-c2ccc(N3CC4CC3CN4)cc2)[nH]c(=O)c(C(=O)O)c1O.O=C(O)C(F)(F)F (centres unmarked) [Cpd 295] ; measured MIC: 1 to 3.5 µg/mL

Lookup result for CCc1cc(C(=O)O)c(=O)[nH]c1-c1ccc(N2C[C@@H](N)[C@@H](O)C2)cc1.O=C(O)C(F)(F)F [Cpd 136] ; measured MIC: 1 to 3.5 µg/mL

Lookup result for CCc1cc(C(=O)O)c(=O)[nH]c1-c1ccc(N2C[C@H]3CCC[C@H](N)[C@H]3C2)cc1.O=C(O)C(F)(F)F [Cpd 203] ; measured MIC: 1 to 3.5 µg/mL

Lookup result for CCc1cc(C(=O)O)c(=O)[nH]c1-c1ccc(N2CCC(CN(C)C)C2)cc1.O=C(O)C(F)(F)F (centres unmarked) [Cpd 185] ; measured MIC: < 1 µg/mL

Lookup result for CCc1cc(C(=O)O)c(=O)[nH]c1-c1ccc(N2CCC(CN(Cc3ccccc3)Cc3ccccc3)C2)cc1.O=C(O)C(F)(F)F (centres unmarked) [Cpd 181] ; measured MIC: 3.5 to 12.5 µg/mL

Lookup result for CCc1cc(C(=O)O)c(=O)[nH]c1-c1ccc(N2CC3CC2CN3)cc1.O=C(O)C(F)(F)F (centres unmarked) [Cpd 138] ; measured MIC: 12.5 to 150 µg/mL

Lookup result for CCc1cc(C(=O)O)c(=O)[nH]c1-c1ccc(N2C[C@H]3C[C@@H](NC)C[C@H]3C2)cc1 [Cpd 215] ; measured MIC: 1 to 3.5 µg/mL

Lookup result for CCc1cc(C(=O)O)c(=O)[nH]c1-c1ccc(N2CCC(C3(NCc4ccccc4)CC3)C2)cc1.O=C(O)C(F)(F)F (centres unmarked) [Cpd 217] ; measured MIC: < 1 µg/mL

====

Task for the reader: assign each of the following molecules its reported MIC.
System: control Gram-negative E. coli 25922 strain
protocol: Antibacterial activity, microbroth dilution MIC, E. coli 25922
Format: cell-based, Escherichia coli
run-parameters: Escherichia coli; E. coli 25922, microbroth dilution; read-out: MIC, 25922

Lookup result for CCc1c(-c2ccc(N3CCCC3)c(C)c2)[nH]c(=O)c(C(=O)O)c1O ; measured MIC: 12.5 to 150 µg/mL

Lookup result for CCc1c(-c2ccc(N3CCCCC3)s2)[nH]c(=O)c(C(=O)O)c1O ; measured MIC: 12.5 to 150 µg/mL

Lookup result for CCc1c(-c2ccc(O)cc2)[nH]c(=O)c(C(=O)O)c1O ; measured MIC: 12.5 to 150 µg/mL

Lookup result for CCc1c(-c2cnn(C)c2)[nH]c(=O)c(C(=O)O)c1O ; measured MIC: 3.5 to 12.5 µg/mL

Lookup result for CCc1cc(C(=O)O)c(=O)[nH]c1-c1ccc(N2CCC(N3CCCC3)C2)cc1 (centres unmarked) ; measured MIC: 1 to 3.5 µg/mL

Lookup result for CCc1cc(C(=O)O)c(=O)[nH]c1-c1ccc(N2Cc3ccccc3C2)cc1 ; measured MIC: 12.5 to 150 µg/mL

Lookup result for CCc1cc(C(=O)O)c(=O)[nH]c1-c1ccc(N2CCC(C)(CN)C2)cc1 (centres unmarked) ; measured MIC: 12.5 to 150 µg/mL

Lookup result for CCc1cc(C(=O)O)c(=O)[nH]c1-c1ccc(N2C(=O)C3C=CC2C3)cc1 (centres unmarked) ; measured MIC: 12.5 to 150 µg/mL

Lookup result for CCc1cc(C(=O)O)c(=O)[nH]c1-c1ccc(N2C[C@H]3CCC[C@@H](NC)[C@H]3C2)cc1 ; measured MIC: 3.5 to 12.5 µg/mL

Lookup result for CCc1c(-c2ccc(N3C[C@H]4CCC[C@H](NC)[C@H]4C3)cc2)[nH]c(=O)c(C(=O)O)c1O.Cl ; measured MIC: 3.5 to 12.5 µg/mL

Lookup result for CCc1c(-c2ccc(N3CC[C@@H](F)C3)cc2F)[nH]c(=O)c(C(=O)O)c1O ; measured MIC: 3.5 to 12.5 µg/mL

Lookup result for CCc1cc(C(=O)O)c(=O)[nH]c1-c1ccc(N2CCCC2)cc1OC ; measured MIC: 12.5 to 150 µg/mL

Lookup result for CCc1c(-c2ccc(N(C)C)s2)[nH]c(=O)c(C(=O)O)c1O ; measured MIC: 3.5 to 12.5 µg/mL

Lookup result for CN(C)c1ccc(-c2[nH]c(=O)c(C(=O)O)cc2C#N)cc1 ; measured MIC: 12.5 to 150 µg/mL

Lookup result for CCc1cc(C(=O)O)c(=O)[nH]c1-c1ccc(N2CCC(N=[N+]=[N-])C2)cc1 (centres unmarked) ; measured MIC: 1 to 3.5 µg/mL

Lookup result for CCc1c(-c2ccc(N3CCCC3)nc2)[nH]c(=O)c(C(=O)O)c1O ; measured MIC: 12.5 to 150 µg/mL

Lookup result for CN(C)c1ccc(-c2[nH]c(=O)c(C(=O)O)c(O)c2C2CC2)cc1 ; measured MIC: 12.5 to 150 µg/mL

Lookup result for CCc1cc(C(=O)O)c(=O)[nH]c1-c1ccc(N2C[C@H]3CC[C@@H](N(Cc4ccccc4)Cc4ccccc4)[C@H]3C2)cc1.O=C(O)C(F)(F)F ; measured MIC: 12.5 to 150 µg/mL

Lookup result for CCc1cc(C(=O)O)c(=O)[nH]c1-c1ccc(N2Cc3cccnc3C2)cc1 ; measured MIC: 3.5 to 12.5 µg/mL

Lookup result for CCc1c(-c2ccc(N3CC[C@H](F)C3)cc2)[nH]c(=O)c(C(=O)O)c1O ; measured MIC: 12.5 to 150 µg/mL

Lookup result for CCc1c(-c2ccc(N3C[C@H]4C[C@@H](N)C[C@H]4C3)cc2)[nH]c(=O)c(C(=O)O)c1O ; measured MIC: 12.5 to 150 µg/mL

Lookup result for CCc1cc(C(=O)O)c(=O)[nH]c1-c1ccc(N(C)C)nc1 ; measured MIC: 12.5 to 150 µg/mL

Lookup result for C/C=C/c1c(-c2ccc(N(C)C)cc2)[nH]c(=O)c(C(=O)O)c1O ; measured MIC: 12.5 to 150 µg/mL

Lookup result for CCc1cc(C(=O)O)c(=O)[nH]c1-c1ccc(N2CCCCC2)s1 ; measured MIC: 12.5 to 150 µg/mL

Lookup result for CCc1c(-c2ccc(N3CCC(c4ccccn4)C3)cc2)[nH]c(=O)c(C(=O)O)c1O (centres unmarked) ; measured MIC: 1 to 3.5 µg/mL

Lookup result for CCc1cc(C(=O)O)c(=O)[nH]c1-c1ccc(N2CCCCC2)cc1 ; measured MIC: 12.5 to 150 µg/mL

Lookup result for CCc1c(-c2ccc(C3CCN(C)CC3)cc2)[nH]c(=O)c(C(=O)O)c1O ; measured MIC: 12.5 to 150 µg/mL

Lookup result for CCc1cc(C(=O)O)c(=O)[nH]c1-c1ccc(N2CCC(C3(NCc4ccccc4)CC3)C2)cc1.O=C(O)C(F)(F)F (centres unmarked) ; measured MIC: 3.5 to 12.5 µg/mL

Lookup result for CC(C)c1cc(C(=O)O)c(=O)[nH]c1-c1ccc(N(C)CCN(C)C)cc1 ; measured MIC: 12.5 to 150 µg/mL

Lookup result for CCc1cc(C(=O)OC)c(=O)[nH]c1-c1ccc(N2CCC(OCc3ccccc3)C2)cc1 (centres unmarked) ; measured MIC: 12.5 to 150 µg/mL

Lookup result for CCc1c(-c2ccc(N3CCCCC3)c(OC)c2)[nH]c(=O)c(C(=O)O)c1O ; measured MIC: 12.5 to 150 µg/mL

Lookup result for CCc1c(-c2ccc(N3CCCCC3)c(C)c2)[nH]c(=O)c(C(=O)O)c1O ; measured MIC: 12.5 to 150 µg/mL

Lookup result for CCc1cc(C(=O)O)c(=O)[nH]c1-c1ccc(N2C[C@H]3CC[C@H](N=[N+]=[N-])[C@H]3C2)cc1.O=C(O)C(F)(F)F ; measured MIC: 3.5 to 12.5 µg/mL

Lookup result for CCc1c(-c2ccc(I)cc2)[nH]c(=O)c(C(=O)O)c1O ; measured MIC: 12.5 to 150 µg/mL

Lookup result for CCc1c(-c2ccc(N3CC4CC3CN4C(=O)OC(C)(C)C)cc2)[nH]c(=O)c(C(=O)O)c1O (centres unmarked) ; measured MIC: 12.5 to 150 µg/mL
